# Test system: Ser. marcescens IFO 12648
# assay_method_text: MIC by agar dilution, Ser. marcescens IFO 12648
# Format: cell-based
# study_conditions: Serratia marcescens, IFO12648, 17 h; Ser. marcescens IFO 12648; agar dilution, Mueller-Hinton agar; read-out: Minimal Inhibitory Concentration (MIC)
measurement_type: MIC (µg/mL)

CO/N=C(\C(=O)N[C@@H]1C(=O)N2C(C(=O)[O-])=C(C[n+]3ccn4c(Cl)ccc4c3C)CS[C@H]12)c1csc(N)n1 [Ex. 45] | 0.025

(a) CCON=C(C(=O)NC1C(=O)N2C(C(=O)[O-])=C(C[n+]3ccn4c(C=O)ccc4c3)CSC12)c1csc(N)n1 (stereo not shown) [Ex. 26]
(b) CO/N=C(\C(=O)N[C@@H]1C(=O)N2C(C(=O)[O-])=C(C[n+]3ccn4cccc4c3)CS[C@H]12)c1nsc(N)n1 [Ex. 48]
(c) CO/N=C(\C(=O)N[C@@H]1C(=O)N2C(C(=O)[O-])=C(C[n+]3ccn4cccc4c3C)CS[C@H]12)c1csc(N)n1 [Ex. 40]
Ascending sort, MIC. Please write the labels in the order that was asked for.
c, b, a
(c: 0.012 µg/mL, b: 0.025 µg/mL, a: 0.1 µg/mL)
